Tested on: rat model of hyperuricemia
test method notes: Reducing uric acid in the rat model of hyperuricemia (Oteracil potassium), 30 d intragastric administration
Assay type: in vivo, SD Rat
stated conditions: hyperuricemia model rats, intragastric once daily, day 30, X ± S
readout: BUN level in the sera of rats upon 30 d administration (mM)

- smiles record: "Oc1ncnc2[nH]ncc12"
  val: 5.53
